Data origin, for the record: PubChem BioAssay AID1259407

tested on: CCRIS mutagenicity, Ames/micronucleus/aberration tests; test: CCRIS mutagenicity studies; conditions: Test System: AMES SALMONELLA TYPHIMURIUM; Strain/Indicator: TA1535; Metabolic Activation: RAT, LIVER, S-9, AROCLOR 1254; Method: STANDARD PLATE
Calls of active or inactive are those of the source. No rule for the calls is given here.
Parameter call: string, one of active, inactive

# count of solved cases: 5
compound	tgt	category
O=C(Nc1ccc2c(O)c(N=Nc3ccc(N=Nc4ccc(S(=O)(=O)O)cc4)cc3)c(S(=O)(=O)O)cc2c1)c1ccccc1	CCRIS mutagenicity, Ames/micronucleus/aberration tests	inactive
c1cnccn1	CCRIS mutagenicity, Ames/micronucleus/aberration tests	inactive
Nc1ncnc2c1ncn2[C@@H]1O[C@H](CO)[C@@H](O)[C@H]1O	CCRIS mutagenicity, Ames/micronucleus/aberration tests	inactive
Cc1cc(N)c(C)cc1N	CCRIS mutagenicity, Ames/micronucleus/aberration tests	inactive
O=PO.O=PO.[Mn+2]	CCRIS mutagenicity, Ames/micronucleus/aberration tests	inactive

For "Clc1nnc(Cl)c2ccccc12" , what call appears in the results of this test?
inactive

Same read-out for "COc1cc(-c2oc3cc(O)cc(O)c3c(=O)c2O)ccc1O" ?
inactive

What about "ClC(Cl)(Cl)Cl" ?
active

// query: "Cc1ccc2c(c1Nc1ccccc1)C(=O)c1ccccc1C2=O"
inactive

Also need "CCCCOCCOCCO" , thanks.
inactive

And what about the compound "Cc1cc(-c2ccc(N=Nc3cc(S(=O)(=O)O)c4ccccc4c3N)c(C)c2)ccc1N=Nc1cc(S(=O)(=O)O)c2ccccc2c1N" ?
inactive

---

system: CCRIS mutagenicity, Ames/micronucleus/aberration tests; experiment: CCRIS mutagenicity studies; settings: Test System: AMES SALMONELLA TYPHIMURIUM; Strain/Indicator: TA100; Metabolic Activation: NONE; Method: STANDARD PLATE
Calls of active or inactive are those of the source. How the calls were made is not given here.
Classes to choose from: active, inactive

Here's what some known entries look like.
> print(dat)
                                   compound  category
1              c1ccc2cc3c(ccc4cccnc43)cc2c1  inactive
2                          O=C(CBr)c1ccccc1  inactive
3  Clc1ccc(C(c2ccccc2Cl)C(Cl)Cl)cc1 (stereo not given)  inactive
4  CC(=O)O[C@H]1C[C@@H]2[C@@]3(C)CCCC(C)(C)[C@@H]3CC[C@@]2(C)[C@@H]2CC=C(C=O)[C@H](C=O)[C@@]12C  inactive
5  O=S1OC[C@@H]2[C@H](CO1)[C@]1(Cl)C(Cl)=C(Cl)[C@@]2(Cl)C1(Cl)Cl (stereo not given in full)  inactive

What is the recorded call for this compound in the test? "O=[N+]([O-])c1cc2cccc([N+](=O)[O-])c2c2ccccc12"
active

Would you kindly repeat that for C=C(C)C1C=C2C(COC(=O)CCCCCCCCCCCCCCCCC)=CC=C2C(C)=CC1 (stereo not given) ?
active

Now consider "CCCCCCCOP(=S)([S-])OCCCCCCC.CCCCCCCOP(=S)([S-])OCCCCCCC.[Zn+2]" .
inactive

---

system: CCRIS mutagenicity, Ames/micronucleus/aberration tests; experiment: CCRIS mutagenicity studies; conditions: Test System: AMES SALMONELLA TYPHIMURIUM; Strain/Indicator: TA1535; Metabolic Activation: HAMSTER, LIVER, S-9, AROCLOR 1254; Method: STANDARD PLATE
Calls of active or inactive are those of the source. The rule behind the calls is not given here.
Pick one and only one: class 1 for active, class 0 for inactive

> print(dat)
                                   compound  category
1  CC(=O)c1ccc(S(=O)(=O)NC(=O)NC2CCCCC2)cc1   class 0

# evaluate next
// outcome(item) with item = "Cc1cc(-c2ccc(N=Nc3cc(S(=O)(=O)O)c4ccccc4c3N)c(C)c2)ccc1N=Nc1cc(S(=O)(=O)O)c2ccccc2c1N"
class 0
